Source listed as the RNAGym collection of RNA variant scans (doi:10.1093/molbev/msab373).

B1: Azoarcus group I ribozyme (parent)
chain: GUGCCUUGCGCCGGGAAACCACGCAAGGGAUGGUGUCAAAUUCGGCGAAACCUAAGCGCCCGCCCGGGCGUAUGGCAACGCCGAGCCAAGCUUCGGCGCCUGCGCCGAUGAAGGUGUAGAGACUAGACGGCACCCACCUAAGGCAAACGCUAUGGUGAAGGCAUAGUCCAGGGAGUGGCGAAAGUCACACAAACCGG

variants of: B1; experiment: reverse-splicing fitness (ratio to wild type); higher = more active; in vitro selection; Mg2+ level not given
Use 1 (yes) when the recorded reverse-splicing fitness is no lower than 0.009; use 0 (no) when it is lower.

> print(dat)
                           alteration  classification
1  C82A A111U A120U C150U C169G U176C          0 (no)

Check the entry A111G C169A U176G : does reverse-splicing fitness equal or exceed 0.009?
0 (no)
